# TEST_SYSTEM: Proteinase-activated receptor 2 (Homo sapiens)
# Sequence (P55085 whole entry): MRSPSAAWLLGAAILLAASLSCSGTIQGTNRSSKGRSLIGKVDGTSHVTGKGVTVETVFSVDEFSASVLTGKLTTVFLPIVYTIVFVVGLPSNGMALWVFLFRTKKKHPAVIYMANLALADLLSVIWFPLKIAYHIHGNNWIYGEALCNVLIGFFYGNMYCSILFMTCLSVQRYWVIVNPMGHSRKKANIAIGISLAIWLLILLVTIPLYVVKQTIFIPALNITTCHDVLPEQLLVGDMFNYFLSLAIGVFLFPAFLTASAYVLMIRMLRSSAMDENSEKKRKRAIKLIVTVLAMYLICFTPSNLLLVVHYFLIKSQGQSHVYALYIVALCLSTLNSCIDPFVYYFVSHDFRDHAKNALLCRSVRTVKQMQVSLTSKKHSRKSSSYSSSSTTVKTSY
# MEASUREMENT_DESCRIPTION: Agonist activity at human PAR2 expressed in CHO cells assessed as induction of intracellular calcium release measured for 300 secs by Fluo-3 AM dye-based fluorescence assay
# Assay type: functional, cell-based

SUBSTANCE	EC50, µM
H-SLIGKV-NH2	3
